- test: Distribution coefficient, log D of the compound
- reported.conditions: octanol/water
endpoint: logD

Cn1c(C(F)(F)F)nc2cc(C(=O)O)ccc21 2.98
Cn1c(N)nc2cc(Cl)ccc21 4.95
Cn1c(C(F)(F)F)nc2ccc(C(=O)O)cc21 3.7
CNC(=O)c1ccc2nc(C(F)(F)F)n(C)c2c1 3.92
Cn1c(S)nc2ccc(Cl)cc21 3.47
c1ccc2[nH]cnc2c1 1.37
Cn1c(C(F)(F)F)nc2ccc(Cl)cc21 4.02
CCN(CC)C(=O)COC(=O)c1ccc2c(c1)nc(C(F)(F)F)n2C 4.06
CNC(=O)c1ccc2[nH]c(C(F)(F)F)nc2c1 2.68
COC(=O)c1ccc2[nH]c(C(F)(F)F)nc2c1 3.52
Cn1c(S)nc2cc(Cl)ccc21 3.14
CCCSc1ccc2nc(NC(=O)OC)[nH]c2c1 3.83
COC(=O)c1ccc2c(c1)nc(C(F)(F)F)n2C 3.65
